Tested on: K4 kissing-loop RNA reporter
measurement.description: apparent KD of K4 kissing-loop reporter; higher = weaker reporter binding
measurement.setup: Eterna round: R107; input ligand: FMN 200 uM
measured.endpoint: apparent KD of K4 kissing-loop reporter (nM)
Answer with a number only, understood to be in nM.

AACGUUUUGUGAAGGAGCGCGAUAAGCAGUGAUGUUGCUUACUUACAAUUUAUAUUUUACACGCAGGUAGGUCGCACAAUACGUA [JR_SSArginiB_Sub017]: 207
UUUGUAGAGGGAAGGAGCGUGAAAGAGAAAGAAUAUAGUGAUGUUAUAUAGAAGAAAGAAUCACAGGUAGGUCGCCCGGAGGAGG [SSArgB.E]: 463
GGAUAGGACAGAGGAUAUCUCUGAGGCAAGAAAACUUGUCUCUAAAGAGAUGACUCAGUGAUGUUGGGAGAAGGCUGUCCUAUCG [FmnBX 10 - #SwitchBubble #StaticStem]: 202
AGGCACGAGCAAGGAUAUUGAGUAGAGUGAUGUUCUGCCUGGGUUGGCUCGAAAGAGCCUUCUCAGCGAGAAGGUGCUCGUGCCU [#2 Same State - FMN A Attempt #22 (HarryS)]: 290
GACUCUCUCGUCAGGAAGACGCACUCAGCCAAGGAUAUUAUGUUUUUAAGAAGGUGGACUUAUGCCAGUGAUGUUGGCAGAUACG [theeternabot_sameState_KL_FMN_A_29]: 50.6

Request: Look up and state reported apparent KD of K4 kissing-loop reporter for `UGAUAGGACAGAAGGAGCGGUAGUGAUGUUGCCAAAAGUAUAAGGUGUCAAAAGACACCCUACCAGGUAGGUCGCUGUCCUAUCU`
Result: 319

----------
Below is a list of entries, each paired with its recorded apparent KD of MS2 coat protein value.
Test system: MS2 coat protein
measurement.description: apparent KD of MS2 coat protein; designed switch direction (-1 OFF switch, 1 ON switch): -1; higher = weaker reporter binding
measurement.setup: Eterna round: R95; input ligand: microRNA oligo, concentration not stated
Answer with a number only, understood to be in nM.

Guide cases for apparent KD of MS2 coat protein, answers given:
AUUGAUGUUGAGGAUAUGCAUAUAUUUAUAAAAGCAGAAGGCGAUACAUGAGGAUCACCCAUGUUCAUGGAAGU [JR_E6_Sub094] (puzzle: Exclusion 6): 35
AAGAAACAUGAGGAUCACCCAUGUGAGGAUAUGAAAAAGAAAAGAAAAGAAAGAAGCAUCAGAAGGCACAAAGG [salish99-ex1_r3_026] (puzzle: Exclusion 1): 32.1
CCUCCACAUGAGGAUCACCCAUGUCAGGAUAUCGUGUGUGCGUUUUCGGUCUUUCGCGCGAGAAGGGACGUCUG (puzzle: Exclusion 1): 28.8
GCCAGAGCAGGAUAUUCAAUAAUUCACAUGAGGAUCACCCAUGUCCAGCGAAAGCUGGAAGGAGAAGGGCUCUGGC [Fiskers Ex 5 - 3] (puzzle: Exclusion 5): 14.5
UUUUAACAUGAGGAUCACCCAUGUGAGGAUAUCGUUUUUUUUUUUUUUUUUUUUUUUUCGAGAAGGCACAUUUU [My solution] (puzzle: Exclusion 1): 84

Request: Look up and state reported apparent KD of MS2 coat protein for AUAAAUAACGUUAGGAUAUAUUUUGUGACAUCAGGAUAGAAGGAACAUGAGGAUCACCCAUGUGAUUCUGUGAA [Maenin] (puzzle: Brourd's mod of Exclusion 4)
Result: 37.2

Request: Look up and state reported apparent KD of MS2 coat protein for UUAAAGGCAGGAUAUACAUUUUUUUUAUUAUCCUCAUUAUUACAUGAGGAUCACCCAUGUAGAAGGGCCAAAUU [Mat - Exclusion 2 - Mod of Hog - D85] (puzzle: Exclusion 2)
Result: 57.6

Request: Look up and state reported apparent KD of MS2 coat protein for GCUGCGCGAGGAUAUGCGGUUUGUGCUUUGGCCCAUGGCGUACAUGAGGAUCACCCAUGUAGAAGGCGUGUGGG [Apr-15 SS2-52] (puzzle: Exclusion 2)
Result: 12

Request: Look up and state reported apparent KD of MS2 coat protein for GAUGCUUCGGCAUCUACAAGCUUUUUGCUCGUCUUAUUAACAUGAGGAUCACCCAUGUCAAAGAGACCUCAUGUAUU [Sensor v3 - turn-off variant 2 - 4] (puzzle: Sensor v3, turn-off variant 2)
Result: 18.9

----------
System: MS2 coat protein
measurement.description: apparent KD of MS2 coat protein; higher = weaker reporter binding
measurement.setup: Eterna round: R107; input ligand: arginine 13.2 mM
Lab note: compare apparent KD of MS2 coat protein against 60 nM. Equal or greater, write TRUE. Smaller, write FALSE.

Request: Can CCUGCGUUUCUUUUCUUUCGCAGGAAUGAUACCAGUAGGGAAACCUACCCUUGGCAGCAUGGGACAUGAGGAUCACCCAUGUAAU [SSThA NP+V+V2 #2] be said to have apparent KD of MS2 coat protein at or above 60 nM?
Result: TRUE

Request: Can GGAAUAACGAUUGAUACCAGCAUGUUAACAUGAGGAUCACCCAUGUUAAGGAUAACAUAAUGCCCUUGGCAGCAACGGAAACCCG [#23Same State - Theophylline B] be said to have apparent KD of MS2 coat protein at or above 60 nM?
Result: FALSE

Request: Can GAUUUAACAAAAGUUAGAUCAGUGGGUGAACGAGGACCGGUACGGCCGCCACUCGGACAUGAGGAUCACCCAUGUCCAUGUGAAA [AstrosExyTryA#20] be said to have apparent KD of MS2 coat protein at or above 60 nM?
Result: FALSE

Request: Can CCGGCCGCAUGAAGGAGCGCACAGCGCUCGCACAUGAGGAUCACCCAUGUAAAUGGGUGCGUGCAGGUAGGUCGCAUGCAGGCAA [Lesobete] be said to have apparent KD of MS2 coat protein at or above 60 nM?
Result: TRUE

----------
Test system: K4 kissing-loop RNA reporter;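 further: bound reporter read as fluorescence of individual clusters on recovered sequencing chips by microscopy, with normalized cluster intensities fitted with a binding model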
measurement.description: apparent KD of K4 kissing-loop reporter; higher = weaker reporter binding
measurement.setup: Eterna round: R107; input ligand: none
Lab note: compare apparent KD of K4 kissing-loop reporter against 0.2 µM. Equal or greater, write condition met. Smaller, write condition not met.

Solved entries (count: 4):
AGGAGCGUGCGAUGCAAAUCGCACGCUCCUCGAGGACCGGUACGGCCGCCACUCGCUCGCGCCGAGUGAUGUUCGGCCGGCGAAC [#2 Same State - Tryptophan A Attempt #10 (HarryS)]: condition met
AGACUACCACACUGUCAAUAGACAGUGAGCUAGGAUAUGCUGAUAAGCAGAAGGAGUGAUGUUCCGAGGUAGUCAAUAAAAUAAU [FmnAX 13 G29+G66]: condition met
GCCGUACGCAUGGAUACCAGCCGACAUGAUAUUUAGCUGGUGUCGUAGUGAUGUUACGAAGGCCCUUGGCAGCCAUGCGUACGGC: condition not met
UACUUAUAUUUCAACUUAAAUUAUUCAGAAGGAGCGUGAUCAUUCACAGGUAGGUCGCUGAACUAGUGAUGUUAGUUUUAAUUUU [JR_Nu_ExcArginiA_Sub022]: condition not met

Request: Can CCGGCCCAGCCGGAUACCAGUGCGCCGCAGGGAACGGCGGGCCCAGAGUGAUGUUCGGGACACCCUUGGCAGCCGCCUGGGUCCU [#2 Same State - Theophylline B Attempt #29 (HarryS)] be said to have apparent KD of K4 kissing-loop reporter at or above 0.2 µM?
Result: condition met

Request: Can GCUAUGGUAGGAAGGAGCGCUUAAUUACUAAUAAGAGUGAUGUUCGAUAGUAGGUAUUUGUAGCAGGUAGGUCGCCUACUAUAGC [KL-Arg B24] be said to have apparent KD of K4 kissing-loop reporter at or above 0.2 µM?
Result: condition met

Request: Can CUGACGUGCGGUAGGUUCAAGUGCUGGGAAGGAGCGCAGAUGACUGCAGGUAGGUCGCCCAGUGAUGUUGGGCUUUCCACCUACG [Quinbe] be said to have apparent KD of K4 kissing-loop reporter at or above 0.2 µM?
Result: condition not met

Request: Can UGUCAUUGGUCGGCCGCCACUUCAUGUAGAGUGAUGUUUUGUAGGACGGAUCGAAAGAUCUGUCGGAGGACCGGGACCGAUGACU [FiskerMod 16 - Jieux - Same State - Tryptophan B] be said to have apparent KD of K4 kissing-loop reporter at or above 0.2 µM?
Result: condition not met

Request: Can GGAGCAGGUGAAGGAUAUCCCGGGCCAGAGUGAUGUUCUGGAUCCCUUGCCGUUUCUAAACGGGUGGGAGAAGGUCACUGAUAAG [Bibimati] be said to have apparent KD of K4 kissing-loop reporter at or above 0.2 µM?
Result: condition met

Request: Can GGAUAGGACGGAGGAUAUGGUAGUGAUGUUACCAAACUGGUUAAACAUGUCAGAAAACUGGCAUGACCAGAAGGCUGUCCUAUCG [FmnBX 27 G10] be said to have apparent KD of K4 kissing-loop reporter at or above 0.2 µM?
Result: condition not met

Request: Can UUAGAGAUCUCAGGAUAUGAGUGAUGUUGAUAUCAAGAUCUGAGAUAGAAUUCUAUCUCAGAUCAAUCAGAAGGGAGAUCUCAUU [AK1.3 Exc FMN B] be said to have apparent KD of K4 kissing-loop reporter at or above 0.2 µM?
Result: condition not met
